Data provenance: ChEMBL document CHEMBL1961873

# TEST_TARGET: Proto-oncogene tyrosine-protein kinase Src (Homo sapiens);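 note: values are averaged inhibition of Src, tested against the GSK PKIS kinase inhibitor set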
# CONDITION_PARAMETERS: at 0.1 µM
VALUE_TYPE: inhibition (%)
Just the number in %, nothing appended.

1) NC(=O)c1sc(-n2cnc3ccc(C(F)(F)F)cc32)cc1OCc1ccccc1Br | 1.66
2) CNC(=O)c1cccc(C#Cc2cncnc2Nc2ccc(OCc3cccc(F)c3)c(Cl)c2)c1 | -0.84
3) CN1CCC(n2cnc(-c3ccc(F)cc3)c2-c2ccnc(Nc3ccccc3)n2)CC1 | 9.92

Cc1ccc(O)cc1Nc1ccnc2cc(-c3ccccn3)ccc12 yielded inhibition of 61

Measured inhibition of c1ccc(COc2ccc(Nc3ncnc4ccc(-c5ccco5)cc34)cc2)cc1 : 0.54

Briefly, inhibition measured for CNC(=O)c1cc(-c2ccc(F)cc2)cc(-c2ccc(S(=O)(=O)N3CCCC3)cc2)c1N : 5.46

Quick note, inhibition for CC(C)COC(=O)c1ccc2c(c1)/C(=C/Nc1ccc(S(N)(=O)=O)cc1)C(=O)N2 landed at 2.28

Value of inhibition reported for the compound N#Cc1c(NC(=O)c2ccc(F)cc2)sc2c1CCCC2 is 4.79

GET /value?item= COc1ccc(-c2oc3ncnc(N)c3c2-c2ccc(NC(=O)Nc3cc(C(F)(F)F)ccc3F)cc2)cc1 &field=inhibition returns 43.1
